target: recombinant human Mcl-1 (residues 171-327) / Bim interaction (Homo sapiens (Human), UniProt Q07820); assay: biochemical; assay type: binding; details: TR-FRET, Mcl-1(171-327) / biotin-Bim (51-76); read-out: Mcl-1 HTRF IC50
Sequence (Q07820 171-327): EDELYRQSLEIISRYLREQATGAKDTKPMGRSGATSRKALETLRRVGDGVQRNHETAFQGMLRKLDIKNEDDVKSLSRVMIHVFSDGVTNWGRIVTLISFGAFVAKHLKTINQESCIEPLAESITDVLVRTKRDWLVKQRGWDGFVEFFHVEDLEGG
pIC50: −log10 of the molar value.
The entries below come with measured pIC50 values attached.
observable: pIC50

# compound, numeric.readout
records = [
    ("CC[C@@H]1CC/C=C/[C@](O)(C(F)(F)F)[C@@H]2CC[C@H]2CN2C[C@@]3(CCCc4cc(Cl)ccc43)COc3ccc(cc32)C(=O)NS1(=O)=O [Example 100044]", 7.51),
    ("CO[C@@]1(C)/C=C/C[C@H](C)[C@@H](CCN2CCOCC2)S(=O)(=O)NC(=O)c2ccc3c(c2)N(C[C@@H]2CC[C@H]21)C[C@@]1(CCCc2cc(Cl)ccc21)CO3 (single isomer, unassigned) [Example 100599]", 8.94),
    ("COC[C@]1(OC)CCC[C@H](C)[C@@H](C)S(=O)(=O)NC(=O)c2ccc3c(c2)N(C[C@@H]2CC[C@H]21)C[C@@]1(CCCc2cc(Cl)ccc21)CO3 [Example 100189]", 9.09),
    ("C[C@@H]1[C@@H](C)C/C=C/[C@](O)([C@H](O)C(=O)N(C)C)[C@@H]2CC[C@H]2CN2C[C@@]3(CCCc4cc(Cl)ccc43)COc3ccc(cc32)C(=O)NS1(=O)=O [Example 100290]", 9.94),
    ("C[C@@H]1[C@@H](C)C/C=C/[C@@](O)(C#CCCc2ccccn2)[C@@H]2CC[C@H]2CN2C[C@@]3(CCCc4cc(Cl)ccc43)COc3ccc(cc32)C(=O)NS1(=O)=O [Example 100440]", 9.40),
]

* * *

target: recombinant human Mcl-1 (residues 171-327) / Bim interaction (Homo sapiens (Human)); assay: biochemical; format: binding; details: 0.1 nM Mcl-1(171-327), 0.05 nM biotin-Bim (51-76); read-out: Mcl-1 HTRF IC50
pIC50: −log10 of the molar value.
Readings of pIC50 for the listed compounds
observable: pIC50

# compound, target.under.test, observable, numeric.readout
data = [
    ("CC(C)CO[C@@]1(CN2CCN3CCCC[C@@H]3C2)/C=C/C[C@H](C)[C@@H](C)S(=O)(=O)NC(=O)c2ccc3c(c2)N(C[C@@H]2CC[C@H]21)C[C@@]1(CCCc2cc(Cl)ccc21)CO3", "recombinant human Mcl-1 (residues 171-327) / Bim interaction (Homo sapiens (Human))", "pIC50", 7.91),
    ("CO[C@@]1(CN2CCN3CCC(F)(F)CC3C2)/C=C/C[C@H](C)[C@@H](C)S(=O)(=O)NC(=O)c2ccc3c(c2)N(C[C@@H]2CC[C@H]21)C[C@@]1(CCCc2cc(Cl)ccc21)CO3 (mixture of isomers)", "recombinant human Mcl-1 (residues 171-327) / Bim interaction (Homo sapiens (Human))", "pIC50", 9.31),
    ("C[C@@H]1[C@@H](C)C/C=C/[C@@](CN2CCN3CCCC[C@@H]3C2)(OCC2CC2)[C@@H]2CC[C@H]2CN2C[C@@]3(CCCc4cc(Cl)ccc43)COc3ccc(cc32)C(=O)NS1(=O)=O", "recombinant human Mcl-1 (residues 171-327) / Bim interaction (Homo sapiens (Human))", "pIC50", 9.64),
    ("COCC(C)(C)N1CCN(C[C@@]2(OC)/C=C/C[C@H](C)[C@@H](C)S(=O)(=O)NC(=O)c3ccc4c(c3)N(C[C@@H]3CC[C@H]32)C[C@@]2(CCCc3cc(Cl)ccc32)CO4)CC1", "recombinant human Mcl-1 (residues 171-327) / Bim interaction (Homo sapiens (Human))", "pIC50", 10.06),
    ("COC[C@H]1CN(C[C@]2(OC)/C=C/C[C@H](C)[C@@H](C)S(=O)(=O)NC(=O)c3ccc4c(c3)N(C[C@@H]3CC[C@H]32)C[C@@]2(CCCc3cc(Cl)ccc32)CO4)CCO1", "recombinant human Mcl-1 (residues 171-327) / Bim interaction (Homo sapiens (Human))", "pIC50", 9.92),
    ("CCN1CCN(C[C@@]2(OC)/C=C/C[C@H](C)[C@@H](C)S(=O)(=O)NC(=O)c3ccc4c(c3)N(C[C@@H]3CC[C@H]32)C[C@@]2(CCCc3cc(Cl)ccc32)CO4)CC1(C)C", "recombinant human Mcl-1 (residues 171-327) / Bim interaction (Homo sapiens (Human))", "pIC50", 9.37),
    ("CO[C@]1(CN2CCN3CCC(F)(F)C[C@H]3C2)/C=C/C[C@H](C)[C@@H](C)S(=O)(=O)NC(=O)c2ccc3c(c2)N(C[C@@H]2CC[C@H]21)C[C@@]1(CCCc2cc(Cl)ccc21)CO3 (single isomer, unassigned)", "recombinant human Mcl-1 (residues 171-327) / Bim interaction (Homo sapiens (Human))", "pIC50", 9.44),
    ("CCO[C@@]1(CN2CCN3CCOC[C@@H]3C2)/C=C/C[C@H](C)[C@@H](C)S(=O)(=O)NC(=O)c2ccc3c(c2)N(C[C@@H]2CC[C@H]21)C[C@@]1(CCCc2cc(Cl)ccc21)CO3", "recombinant human Mcl-1 (residues 171-327) / Bim interaction (Homo sapiens (Human))", "pIC50", 9.71),
    ("CCO[C@@]1(CN2CCN3CCCC[C@@H]3C2)/C=C/C[C@H](C)[C@@H](C)S(=O)(=O)NC(=O)c2ccc3c(c2)N(C[C@@H]2CC[C@H]21)C[C@@]1(CCCc2cc(Cl)ccc21)CO3", "recombinant human Mcl-1 (residues 171-327) / Bim interaction (Homo sapiens (Human))", "pIC50", 8.94),
]
